molecular target: Human immunodeficiency virus type 1 protease (Human immunodeficiency virus 1, UniProt Q72874)
Measured parameter: Ki

Record excerpt, results attached:
CC(C)[C@H](NC(=O)N(C)Cc1ccccn1)C(=O)N[C@@H](Cc1ccccc1)[C@@H](O)[C@H](O)[C@H](Cc1ccccc1)NC(=O)[C@@H](NC(=O)N(C)Cc1ccccn1)C(C)C: < 1 nM
CC(C)[C@H](NC(=O)N(C)Cc1ccccn1)C(=O)NC[C@@H]1O[C@@H]1[C@H](Cc1ccccc1)NC(=O)[C@H](NC(=O)N(C)Cc1ccccn1)C(C)C: 16 nM

Let us examine a further case.
Query: Need Ki, item CC(C)[C@H](NC(=O)OCc1ccncc1)C(=O)NC[C@@H]1O[C@@H]1[C@H](Cc1ccccc1)NC(=O)[C@H](NC(=O)OCc1ccncc1)C(C)C
Response: 300 nM

* * *

system: SUP-T1; test: Tested for the inhibitory activity against HIV-1 in Sup T1 cell lines assessed by syncytium formation and reverse transcriptase assay; type: functional, cell-based; details: Homo sapiens
Measured parameter: IC50 (nM)
Reply numerically in nM, unit not repeated.

// worked examples, IC50 included
CC(C)(C)NC(=O)[C@@H]1C[C@@H]2CCCC[C@@H]2CN1C[C@@H](O)[C@H](Cc1ccccc1)NC(=O)[C@H](CC(N)=O)NC(=O)c1ccc2ccccc2n1: 20
CC(C)[C@H](NC(=O)OCc1ccccc1)C(=O)NC[C@@H]1O[C@@H]1[C@H](Cc1ccccc1)NC(=O)[C@H](NC(=O)OCc1ccccc1)C(C)C: 30

Shift focus to the following entry.
Query: Any idea what IC50 was measured for Cc1cn([C@H]2C[C@H](N=[N+]=[N-])[C@@H](CO)O2)c(=O)[nH]c1=O ?
Response: 50

* * *

biological target: UniProt Q72874
// classify: if (Ki < 10 nM) rule met else rule not met

Past entries and their recorded results:
CC(C)[C@H](NC(=O)OCc1ccccc1)C(=O)N[C@@H](Cc1ccccc1)C1OC1[C@H](Cc1ccccc1)NC(=O)[C@@H](NC(=O)OCc1ccccc1)C(C)C (stereo partly specified): rule not met
CC(C)[C@H](NC(=O)OCc1cccnc1)C(=O)NC[C@@H]1O[C@@H]1[C@H](Cc1ccccc1)NC(=O)[C@H](NC(=O)OCc1cccnc1)C(C)C: rule not met
CC(C)[C@H](NC(=O)OCc1ccccc1)C(=O)NC[C@@H]1O[C@@H]1[C@H](Cc1ccccc1)NC(=O)[C@H](NC(=O)OCc1ccccc1)C(C)C: rule met
CC(C)[C@H](NC(=O)OCc1ccccn1)C(=O)NC[C@@H]1O[C@@H]1[C@H](Cc1ccccc1)NC(=O)[C@H](NC(=O)OCc1ccccn1)C(C)C: rule not met
CC(C)[C@H](NC(=O)OCc1ccccc1)C(=O)NC(C)[C@@H]1O[C@@H]1[C@H](Cc1ccccc1)NC(=O)[C@H](NC(=O)OCc1ccccc1)C(C)C (stereo partly specified): rule met

With those in mind, consider the next compound.
Query: Identify whether the compound CC(C)[C@H](NC(=O)OCc1ccccc1)C(=O)N[C@@H](Cc1ccccc1)[C@H](O)[C@H](O)[C@H](Cc1ccccc1)NC(=O)[C@@H](NC(=O)OCc1ccccc1)C(C)C records Ki below 10 nM.
Response: rule met

* * *

biological target: Human immunodeficiency virus type 1 protease (Human immunodeficiency virus 1); assay: Ratio of inactivation constant (Kina) and inhibition constant (Ki) was determined
Measured parameter: log10 of K inact/Ki (log10 of the value in M⁻¹ s⁻¹)
Quick note: numbers are log10 of K inact/Ki, with M⁻¹ s⁻¹ as the unit.

In the examples that follow, each entry is paired with its recorded log10 of K inact/Ki.
CC(C)[C@H](NC(=O)OCc1ccncc1)C(=O)NC[C@@H]1O[C@@H]1[C@H](Cc1ccccc1)NC(=O)[C@H](NC(=O)OCc1ccncc1)C(C)C: 3.75
CC(C)[C@H](NC(=O)OCc1ccccc1)C(=O)NC(C)[C@@H]1O[C@@H]1[C@H](Cc1ccccc1)NC(=O)[C@H](NC(=O)OCc1ccccc1)C(C)C (stereo partly specified): 5.82
CC(C)[C@H](NC(=O)N(C)Cc1ccccn1)C(=O)NC[C@@H]1O[C@@H]1[C@H](Cc1ccccc1)NC(=O)[C@H](NC(=O)N(C)Cc1ccccn1)C(C)C: 5.56
CC(C)[C@H](NC(=O)OCc1cccnc1)C(=O)NC[C@@H]1O[C@@H]1[C@H](Cc1ccccc1)NC(=O)[C@H](NC(=O)OCc1cccnc1)C(C)C: 4.37
CC(C)[C@H](NC(=O)OCc1ccccn1)C(=O)NC[C@@H]1O[C@@H]1[C@H](Cc1ccccc1)NC(=O)[C@H](NC(=O)OCc1ccccn1)C(C)C: 5.58

Would you kindly look at the next entry?
Query: Name the recorded log10 of K inact/Ki for CC(C)[C@H](NC(=O)OCc1ccccc1)C(=O)NC[C@@H]1O[C@@H]1[C@H](Cc1ccccc1)NC(=O)[C@H](NC(=O)OCc1ccccc1)C(C)C .
Response: 6.40
